biological target: FGFR4 (h) (Homo sapiens, UniProt P22455); assay: FGFR4 (enzymatic assay), TR-FRET; type: biochemical; conditions: 5 μM ATP; pIC50 = -log IC50 (M); read-out: FGFR 4 pIC50 (converted)
Sequence (P22455 22-802): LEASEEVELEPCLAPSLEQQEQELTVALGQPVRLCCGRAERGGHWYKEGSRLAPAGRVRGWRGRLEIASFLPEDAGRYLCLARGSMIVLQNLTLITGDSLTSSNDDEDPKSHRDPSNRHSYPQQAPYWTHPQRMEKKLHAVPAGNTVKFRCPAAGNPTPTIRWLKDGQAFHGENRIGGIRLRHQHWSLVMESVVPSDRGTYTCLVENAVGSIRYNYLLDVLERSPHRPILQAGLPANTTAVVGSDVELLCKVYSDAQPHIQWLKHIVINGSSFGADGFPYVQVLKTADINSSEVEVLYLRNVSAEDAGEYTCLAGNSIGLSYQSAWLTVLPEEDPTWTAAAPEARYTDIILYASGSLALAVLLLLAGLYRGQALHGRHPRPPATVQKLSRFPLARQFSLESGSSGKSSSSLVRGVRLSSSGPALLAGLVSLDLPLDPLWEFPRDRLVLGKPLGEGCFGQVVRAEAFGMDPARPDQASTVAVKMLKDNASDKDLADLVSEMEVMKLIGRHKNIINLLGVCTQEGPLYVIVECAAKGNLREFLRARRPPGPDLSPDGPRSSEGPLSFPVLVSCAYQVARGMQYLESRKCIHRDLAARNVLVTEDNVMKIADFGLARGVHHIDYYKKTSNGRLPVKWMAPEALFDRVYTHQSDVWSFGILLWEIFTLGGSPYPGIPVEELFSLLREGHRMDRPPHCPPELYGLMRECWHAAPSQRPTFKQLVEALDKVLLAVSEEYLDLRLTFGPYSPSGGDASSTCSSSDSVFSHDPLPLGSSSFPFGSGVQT
reported metric: IC50 (M)
Give bare numbers, in M.

smiles_representation=COc1cc(OC)c(F)c(N(Cc2ncc[nH]2)c2ccc3ncn(-c4cnn(C)c4)c(=O)c3c2)c1F unit_of_measurement=M numeric_value=5.01e-09
smiles_representation=COc1cc(OC)c(F)c(N(Cc2ncc[nH]2)c2ccc3ncn(-c4ccccc4)c(=O)c3c2)c1F unit_of_measurement=M numeric_value=2.51e-08
smiles_representation=COc1cc(OC)c(F)c(N(Cc2ncc[nH]2)c2ccc3ncn(-c4cnn(C)c4)c(=O)c3c2)c1 unit_of_measurement=M numeric_value=7.94e-09

Okay, now this molecule:
Supply recorded IC50 for "COc1cc(OC)c(F)c(N(CCO)c2ccc3ncn(-c4cnn(C)c4)c(=O)c3c2)c1F" here.
5.01e-09

* * *

target: Ba/F3-FGFR3-transfected cells (Homo sapiens, UniProt P22607, cells depend on it, form not given); construct: BAF3-FGFR3 (MIN IL3 pIC50); other: minus IL3; 24 hours, Alamar Blue; assay: Ba/F3-FGFR3 (minus IL3 or plus IL3) cellular proliferation assay; type: cell-based; conditions: 24 hours, Alamar Blue
Sequence (P22607 whole entry, looked up, change not shown): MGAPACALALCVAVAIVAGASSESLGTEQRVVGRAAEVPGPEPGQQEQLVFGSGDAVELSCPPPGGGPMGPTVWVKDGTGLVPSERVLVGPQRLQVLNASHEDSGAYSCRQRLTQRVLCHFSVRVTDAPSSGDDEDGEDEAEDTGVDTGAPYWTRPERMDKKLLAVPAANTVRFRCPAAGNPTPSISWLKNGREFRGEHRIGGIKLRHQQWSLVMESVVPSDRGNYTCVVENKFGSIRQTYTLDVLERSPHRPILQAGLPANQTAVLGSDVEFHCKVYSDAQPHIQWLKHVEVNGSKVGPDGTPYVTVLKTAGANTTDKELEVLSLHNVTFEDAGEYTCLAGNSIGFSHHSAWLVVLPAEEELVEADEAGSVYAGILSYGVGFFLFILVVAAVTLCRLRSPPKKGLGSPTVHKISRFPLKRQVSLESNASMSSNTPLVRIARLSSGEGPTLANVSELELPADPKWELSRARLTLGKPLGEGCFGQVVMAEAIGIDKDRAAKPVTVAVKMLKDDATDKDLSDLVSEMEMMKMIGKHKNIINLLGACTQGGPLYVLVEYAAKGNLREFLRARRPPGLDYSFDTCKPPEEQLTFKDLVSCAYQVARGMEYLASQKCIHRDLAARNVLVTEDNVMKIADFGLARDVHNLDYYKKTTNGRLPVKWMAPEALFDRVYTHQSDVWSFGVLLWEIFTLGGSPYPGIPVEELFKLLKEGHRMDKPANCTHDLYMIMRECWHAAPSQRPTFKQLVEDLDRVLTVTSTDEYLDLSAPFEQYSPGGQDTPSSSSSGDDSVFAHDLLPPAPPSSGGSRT
What BAF3-FGFR3 (MIN IL3 pIC50) was measured for each of the following?

smiles_representation=COc1cc(OC)c(F)c(N(CCO)c2ccc3ncn(-c4cnn(C)c4)c(=O)c3c2)c1 result=6.4
smiles_representation=COc1cc(OC)c(F)c(N(CCO)c2ccc3ncn(-c4ccccc4)c(=O)c3c2)c1F result=6.4
smiles_representation=COc1cc(OC)c(F)c(N(Cc2ncc[nH]2)c2ccc3ncn(-c4cnn(C)c4)c(=O)c3c2)c1 result=~7.15
smiles_representation=COc1cc(OC)c(F)c(N(CCNC(C)C)c2ccc3ncn(-c4cnn(C)c4)c(=O)c3c2)c1 result=7.7
smiles_representation=COc1cc(OC)c(F)c(N(CCO)c2ccc3ncn(-c4ccccc4)c(=O)c3c2)c1 result=5.5
smiles_representation=COc1cc(OC)cc(C(=O)c2ccc3ncn(-c4cnn(C)c4)c(=O)c3c2)c1 result=<5
smiles_representation=COc1cc(OC)c(Cl)c(N(CCO)c2ccc3ncn(-c4ccccc4)c(=O)c3c2)c1Cl result=5.3

Would you kindly look at the next entry?
Using the record for "COc1cc(OC)c(F)c(N(CCO)c2ccc3ncn(-c4cnn(C)c4)c(=O)c3c2)c1F" , state its measured BAF3-FGFR3 (MIN IL3 pIC50).
~7.68

* * *

target: FGFR2 (h) (Homo sapiens); assay: FGFR2 (enzymatic assay), TR-FRET; format: biochemical; details: 0.4 μM ATP; pIC50 = -log IC50 (M); read-out: FGFR 2 pIC50 (converted)
Sequence (P21802 22-821): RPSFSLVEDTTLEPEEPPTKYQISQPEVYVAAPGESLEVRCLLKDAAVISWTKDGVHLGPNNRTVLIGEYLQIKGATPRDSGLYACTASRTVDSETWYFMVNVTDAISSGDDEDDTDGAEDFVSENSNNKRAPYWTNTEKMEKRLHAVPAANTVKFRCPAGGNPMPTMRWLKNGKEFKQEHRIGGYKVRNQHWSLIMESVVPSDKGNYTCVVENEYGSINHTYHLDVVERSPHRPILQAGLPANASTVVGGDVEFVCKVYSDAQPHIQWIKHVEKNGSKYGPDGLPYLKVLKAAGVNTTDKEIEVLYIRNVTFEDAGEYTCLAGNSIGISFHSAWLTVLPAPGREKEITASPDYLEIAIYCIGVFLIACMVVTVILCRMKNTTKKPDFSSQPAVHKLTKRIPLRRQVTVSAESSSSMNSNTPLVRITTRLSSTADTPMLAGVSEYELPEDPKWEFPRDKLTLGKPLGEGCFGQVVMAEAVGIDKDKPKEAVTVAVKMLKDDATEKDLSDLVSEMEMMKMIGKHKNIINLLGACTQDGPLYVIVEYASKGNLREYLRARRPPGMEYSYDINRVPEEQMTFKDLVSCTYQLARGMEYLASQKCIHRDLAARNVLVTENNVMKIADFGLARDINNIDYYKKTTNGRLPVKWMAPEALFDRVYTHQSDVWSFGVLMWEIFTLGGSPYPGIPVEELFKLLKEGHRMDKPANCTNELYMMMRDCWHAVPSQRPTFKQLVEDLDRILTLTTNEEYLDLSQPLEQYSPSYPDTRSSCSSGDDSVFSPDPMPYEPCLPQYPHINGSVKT
Can you tell me IC50 for the items I'm about to list?
Give bare numbers, in M.

Worked cases, IC50 given:
smiles_representation=COc1cc(OC)c(Cl)c(N(CCNC(C)C)c2ccc3ncn(-c4cnn(C)c4)c(=O)c3c2)c1Cl reported_metric=IC50 unit_of_measurement=M numeric_value=6.31e-08
smiles_representation=COc1cc(OC)c(F)c(N(CCO)c2ccc3ncn(-c4cnn(C)c4)c(=O)c3c2)c1F reported_metric=IC50 unit_of_measurement=M numeric_value=2.51e-09
smiles_representation=COc1cc(OC)cc(N(CCO)c2ccc3ncn(-c4ccccc4)c(=O)c3c2)c1 reported_metric=IC50 unit_of_measurement=M numeric_value=3.98e-07

Pending compound:
Report value only: IC50, FGFR2 (h) (Homo sapiens), "COc1cc(OC)cc(N(CCO)c2ccc3ncn(-c4cnn(C)c4)c(=O)c3c2)c1"
2.51e-08

* * *

I'd be grateful if you could share measured IC50 for these entries.
target: UniProt P35968; assay: KDR (VEGFR2) (enzymatic assay), TR-FRET; assay type: biochemical; settings: 3 μM ATP; pIC50 = -log IC50 (M); read-out: VEGFR KDR pIC50 (converted)
Give bare numbers, in M.

Worked set:
smiles_representation=COc1cc(OC)c(Cl)c(N(CCNC(C)C)c2ccc3ncn(-c4cnn(C)c4)c(=O)c3c2)c1Cl test_system="UniProt P35968" reported_metric=IC50 unit_of_measurement=M numeric_value=5.01e-07
smiles_representation=COc1cc(OC)c(F)c(N(CCO)c2ccc3ncn(-c4cnn(C)c4)c(=O)c3c2)c1F test_system="UniProt P35968" reported_metric=IC50 unit_of_measurement=M numeric_value=3.98e-08
smiles_representation=COc1cc(OC)c(Cl)c(N(CCO)c2ccc3ncn(-c4cnn(C)c4)c(=O)c3c2)c1Cl test_system="UniProt P35968" reported_metric=IC50 unit_of_measurement=M numeric_value=5.01e-07
smiles_representation=CNCCN(c1ccc2ncn(-c3cnn(C)c3)c(=O)c2c1)c1c(F)c(OC)cc(OC)c1F test_system="UniProt P35968" reported_metric=IC50 unit_of_measurement=M numeric_value=1.58e-07
smiles_representation=COc1cc(OC)cc(N(CCO)c2ccc3ncn(-c4cnn(C)c4)c(=O)c3c2)c1 test_system="UniProt P35968" reported_metric=IC50 unit_of_measurement=M numeric_value=7.94e-07

Provide measured IC50 value, entry: "COc1cc(OC)c(F)c(N(CCNC(C)C)c2ccc3ncn(-c4cnn(C)c4)c(=O)c3c2)c1"
1.26e-07

* * *

target: FGFR2 (Homo sapiens); construct: purchased DiscoveRx Corporation; assay: Enzyme binding assay (KINOMEscan) FGFR2; settings: pKd = -log Kd (M), read-out: FGFR2_pKd (converted)
Sequence (P21802 22-821): as the sequence (P21802 22-821) above
reported metric: Kd
Units required after the number.

Here are 4 compounds together with their reported answers.
compound=COc1cc(OC)c(F)c(N(CCO)c2ccc3ncn(C4CCOCC4)c(=O)c3c2)c1 result="6.31e-08 M"
compound=CNCCN(c1ccc2ncn(C3CCOCC3)c(=O)c2c1)c1cc(OC)cc(OC)c1F result="3.98e-08 M"
compound=COc1cc(OC)c(F)c(N(CCCNC(C)C)c2ccc3ncn(C4CCNCC4)c(=O)c3c2)c1F result="5.01e-09 M"
compound=COc1cc(OC)c(F)c(N(CCNC(C)C)c2ccc3ncn(-c4cccnc4)c(=O)c3c2)c1 result="1.58e-08 M"

Need Kd for each of these compounds.
1. CNCCN(c1cc(OC)cc(OC)c1)c1ccc2ncn(C3CCOCC3)c(=O)c2c1
2. COc1cc(OC)c(F)c(N(CCO)c2ccc3ncn(-c4cncnc4)c(=O)c3c2)c1F
3. COc1cc(OC)c(F)c(N(CCO)c2ccc3ncn(-c4cccnc4)c(=O)c3c2)c1F
4. COc1cc(OC)cc(N(CCCNC(C)C)c2ccc3ncn(C4CCOCC4)c(=O)c3c2)c1 [Compound 73]
5. COc1cc(OC)cc(N(Cc2ncc[nH]2)c2ccc3ncn(C4CCNCC4)c(=O)c3c2)c1
6. COc1cc(OC)c(F)c(N(CCCNC(C)C)c2ccc3ncn(C4CCNCC4)c(=O)c3c2)c1
7. COc1cc(OC)c(F)c(N(CCO)c2ccc3ncn(C4CCNCC4)c(=O)c3c2)c1F

1: 3.98e-07 M; 2: 1.58e-08 M; 3: 3.16e-09 M; 4: 5.01e-08 M; 5: 1.58e-07 M; 6: 2e-08 M; 7: 3.98e-08 M

* * *

molecular target: KDR (h) (Homo sapiens, UniProt P35968); experiment: KDR (VEGFR2) (enzymatic assay), TR-FRET; type: biochemical; conditions: 3 μM ATP; pIC50 = -log IC50 (M); read-out: VEGFR KDR pIC50 (converted)
Sequence (P35968 20-1356): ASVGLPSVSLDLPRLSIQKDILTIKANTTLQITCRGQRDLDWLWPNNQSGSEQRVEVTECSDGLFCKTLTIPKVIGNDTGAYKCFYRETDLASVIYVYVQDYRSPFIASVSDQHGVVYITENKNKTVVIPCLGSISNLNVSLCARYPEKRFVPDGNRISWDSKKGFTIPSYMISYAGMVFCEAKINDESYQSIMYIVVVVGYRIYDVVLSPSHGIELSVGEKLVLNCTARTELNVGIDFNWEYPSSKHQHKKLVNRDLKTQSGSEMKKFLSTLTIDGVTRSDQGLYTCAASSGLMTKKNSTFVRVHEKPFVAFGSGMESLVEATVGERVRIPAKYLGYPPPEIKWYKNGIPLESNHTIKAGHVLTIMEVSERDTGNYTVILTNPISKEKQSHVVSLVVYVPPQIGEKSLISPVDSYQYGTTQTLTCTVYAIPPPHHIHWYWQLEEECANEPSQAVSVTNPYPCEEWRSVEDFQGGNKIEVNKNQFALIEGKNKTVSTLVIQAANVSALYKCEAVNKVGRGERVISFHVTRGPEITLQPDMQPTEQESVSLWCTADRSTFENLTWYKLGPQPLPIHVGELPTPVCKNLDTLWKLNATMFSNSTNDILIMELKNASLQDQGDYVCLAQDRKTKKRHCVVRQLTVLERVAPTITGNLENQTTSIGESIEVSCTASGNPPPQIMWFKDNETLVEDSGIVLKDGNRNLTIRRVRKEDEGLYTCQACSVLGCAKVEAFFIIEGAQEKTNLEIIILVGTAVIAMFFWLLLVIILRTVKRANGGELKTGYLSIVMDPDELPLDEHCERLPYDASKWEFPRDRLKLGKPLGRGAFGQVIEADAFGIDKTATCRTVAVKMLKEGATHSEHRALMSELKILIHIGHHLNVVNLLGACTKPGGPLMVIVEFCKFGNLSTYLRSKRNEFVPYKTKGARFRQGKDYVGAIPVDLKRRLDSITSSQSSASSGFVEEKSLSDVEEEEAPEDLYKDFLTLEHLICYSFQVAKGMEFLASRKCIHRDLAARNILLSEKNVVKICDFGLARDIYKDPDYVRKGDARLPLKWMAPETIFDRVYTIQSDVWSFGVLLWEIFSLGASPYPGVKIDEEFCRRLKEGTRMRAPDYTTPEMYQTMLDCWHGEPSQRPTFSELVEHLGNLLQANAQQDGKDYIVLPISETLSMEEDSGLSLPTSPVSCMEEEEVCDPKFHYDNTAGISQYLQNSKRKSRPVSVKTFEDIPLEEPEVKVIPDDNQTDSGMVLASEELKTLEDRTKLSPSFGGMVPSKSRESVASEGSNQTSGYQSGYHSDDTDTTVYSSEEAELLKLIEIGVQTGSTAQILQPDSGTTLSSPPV
reported metric: IC50 (M)
Answers are plain numbers, in M.

compound="COc1cc(OC)c(Cl)c(N(Cc2ncc[nH]2)c2ccc3ncn(-c4cnn(C)c4)c(=O)c3c2)c1Cl [Compound 13]" test_system="KDR (h) (Homo sapiens, UniProt P35968)" numeric_value=2.51e-07
compound="COc1cc(OC)cc(N(CCNC(C)C)c2ccc3ncn(-c4cnn(C)c4)c(=O)c3c2)c1 [Compound 9]" test_system="KDR (h) (Homo sapiens, UniProt P35968)" numeric_value=5.01e-07

Give the reported IC50 for this compound. COc1cc(OC)c(F)c(N(CCO)c2ccc3ncn(-c4cnn(C)c4)c(=O)c3c2)c1 [Compound 16]
2e-07

* * *

Lab note: pIC50 readings collected with FGFR1 (h) (Homo sapiens) for the following molecules.
Sequence (P11362 22-822): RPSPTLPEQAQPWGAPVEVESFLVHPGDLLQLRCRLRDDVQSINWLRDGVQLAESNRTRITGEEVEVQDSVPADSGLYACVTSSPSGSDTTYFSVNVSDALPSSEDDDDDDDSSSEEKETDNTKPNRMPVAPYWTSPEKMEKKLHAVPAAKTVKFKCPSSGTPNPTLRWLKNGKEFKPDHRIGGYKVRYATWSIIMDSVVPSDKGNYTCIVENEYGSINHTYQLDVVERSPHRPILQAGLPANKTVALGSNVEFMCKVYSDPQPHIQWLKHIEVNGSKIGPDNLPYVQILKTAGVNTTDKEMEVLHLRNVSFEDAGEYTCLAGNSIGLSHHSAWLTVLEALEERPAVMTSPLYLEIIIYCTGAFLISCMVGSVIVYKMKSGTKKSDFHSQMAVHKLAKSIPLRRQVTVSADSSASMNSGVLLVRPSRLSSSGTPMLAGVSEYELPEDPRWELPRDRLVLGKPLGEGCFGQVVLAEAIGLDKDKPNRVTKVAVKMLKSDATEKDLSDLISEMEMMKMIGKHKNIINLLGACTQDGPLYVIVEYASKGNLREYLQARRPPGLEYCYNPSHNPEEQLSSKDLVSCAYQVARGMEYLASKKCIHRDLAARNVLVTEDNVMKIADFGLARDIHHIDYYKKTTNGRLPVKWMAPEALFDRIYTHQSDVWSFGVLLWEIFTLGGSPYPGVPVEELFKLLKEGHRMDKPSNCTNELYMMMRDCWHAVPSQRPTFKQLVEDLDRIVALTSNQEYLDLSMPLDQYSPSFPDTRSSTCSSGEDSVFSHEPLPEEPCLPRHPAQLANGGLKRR
Give bare numbers, as −log10 of the molar value.

A selection of reference data follows.
molecule="COc1cc(OC)cc(N(CCO)c2ccc3ncn(-c4cnn(C)c4)c(=O)c3c2)c1 [Compound 8]" numeric_value=7.30
molecule="COc1cc(OC)c(F)c(N(CCNC(C)C)c2ccc3ncn(-c4cnn(C)c4)c(=O)c3c2)c1F [Compound 19]" numeric_value=8.30

Respectfully, I request pIC50 for each entry included below.
1. CNCCN(c1ccc2ncn(-c3cnn(C)c3)c(=O)c2c1)c1c(F)c(OC)cc(OC)c1F [Compound 20]
2. COc1cc(OC)c(Cl)c(N(Cc2ncc[nH]2)c2ccc3ncn(-c4cnn(C)c4)c(=O)c3c2)c1Cl [Compound 13]
3. COc1cc(OC)c(F)c(N(CCO)c2ccc3ncn(-c4cnn(C)c4)c(=O)c3c2)c1 [Compound 16]
4. COc1cc(OC)c(F)c(N(CCO)c2ccc3ncn(-c4ccccc4)c(=O)c3c2)c1F [Compound 1]
5. COc1cc(OC)c(Cl)c(N(CCNC(C)C)c2ccc3ncn(-c4cnn(C)c4)c(=O)c3c2)c1Cl [Compound 11]
6. COc1cc(OC)cc(N(CCO)c2ccc3ncn(-c4ccccc4)c(=O)c3c2)c1 [Compound 7]

8.00
7.80
7.90
8.00
7.90
6.20
